Measured EC20 Yolk sac size Increase, listed per entry.
# Tested on: Danio rerio embryo
# assay.info: EC20 Yolk sac size_Increase; higher = less potent
# condition.description: exposure time: 4 dpf
readout: EC20 Yolk sac size Increase (µM)

>  <compound>
CC1(C)O[C@@H]2[C@@H](CO[C@@]3(COS(N)(=O)=O)OC(C)(C)O[C@@H]23)O1 [Topiramate]

>  <readout>
EC20 Yolk sac size Increase

>  <numeric.value>
149

$$$$
>  <compound>
CCCCC(O)(Cn1cncn1)c1ccc(Cl)cc1Cl (stereo not drawn) [Hexaconazole]

>  <readout>
EC20 Yolk sac size Increase

>  <numeric.value>
6.81

$$$$
>  <compound>
CC(C)(C)C(O)C(Oc1ccc(Cl)cc1)n1cncn1 (stereo not drawn) [Triadimenol]

>  <readout>
EC20 Yolk sac size Increase

>  <numeric.value>
88.7

$$$$
>  <compound>
Cc1ccc(-c2cc(C(F)(F)F)nn2-c2ccc(S(N)(=O)=O)cc2)cc1 [Celecoxib]

>  <readout>
EC20 Yolk sac size Increase

>  <numeric.value>
11.4

$$$$
>  <compound>
CCCCOC(=O)[C@@H](C)Oc1ccc(Oc2ccc(C(F)(F)F)cn2)cc1 [fluazifop-p-butyl]

>  <readout>
EC20 Yolk sac size Increase

>  <numeric.value>
2.62

$$$$
>  <compound>
C[Si](Cn1cncn1)(c1ccc(F)cc1)c1ccc(F)cc1 [Flusilazole]

>  <readout>
EC20 Yolk sac size Increase

>  <numeric.value>
5.53

$$$$
>  <compound>
CCO/N=C(\CC)C1=C(O)CC(c2c(C)cc(C)cc2C)CC1=O (stereo not drawn) [Tralkoxydim]

>  <readout>
EC20 Yolk sac size Increase

>  <numeric.value>
45.9

$$$$
>  <compound>
CC(C)(C)C(O)/C(=C/c1ccc(Cl)cc1Cl)n1cncn1 (stereo not drawn) [Diniconazole]

>  <readout>
EC20 Yolk sac size Increase

>  <numeric.value>
1.74

$$$$

---

# System: Danio rerio embryo
# assay.info: EC10 Eye-jaw distance_Decrease; higher = less potent
# condition.description: exposure time: 4 dpf

>  <molecule>
CCCCC(O)(Cn1cncn1)c1ccc(Cl)cc1Cl (stereo unspecified)

>  <assayed.target>
Danio rerio embryo

>  <EC10 Eye-jaw distance Decrease, µM>
9.21

$$$$
>  <molecule>
CSc1nc2cc(Cl)c(Oc3cccc(Cl)c3Cl)cc2[nH]1

>  <assayed.target>
Danio rerio embryo

>  <EC10 Eye-jaw distance Decrease, µM>
0.695

$$$$
>  <molecule>
CCC(=O)OCC(=O)[C@@]1(OC(=O)CC)[C@@H](C)C[C@H]2[C@@H]3CCC4=CC(=O)C=C[C@]4(C)[C@@]3(F)[C@@H](O)C[C@@]21C [betamethasone dipropionate]

>  <assayed.target>
Danio rerio embryo

>  <EC10 Eye-jaw distance Decrease, µM>
0.003

$$$$
>  <molecule>
Cc1ccc(-c2cc(C(F)(F)F)nn2-c2ccc(S(N)(=O)=O)cc2)cc1

>  <assayed.target>
Danio rerio embryo

>  <EC10 Eye-jaw distance Decrease, µM>
9.89

$$$$
>  <molecule>
CCCNCC(O)COc1ccccc1C(=O)CCc1ccccc1 (stereo unspecified)

>  <assayed.target>
Danio rerio embryo

>  <EC10 Eye-jaw distance Decrease, µM>
17.8

$$$$
>  <molecule>
O=C(O)Cc1ccccc1Nc1c(Cl)cccc1Cl

>  <assayed.target>
Danio rerio embryo

>  <EC10 Eye-jaw distance Decrease, µM>
5.49

$$$$
>  <molecule>
CCOC(=O)N1CCC(=C2c3ccc(Cl)cc3CCc3cccnc32)CC1

>  <assayed.target>
Danio rerio embryo

>  <EC10 Eye-jaw distance Decrease, µM>
5.07

$$$$
>  <molecule>
O=C(O)CCc1nc(-c2ccccc2)c(-c2ccccc2)o1

>  <assayed.target>
Danio rerio embryo

>  <EC10 Eye-jaw distance Decrease, µM>
12.7

$$$$
>  <molecule>
CC(C)(C)C(O)/C(=C/c1ccc(Cl)cc1Cl)n1cncn1 (stereo unspecified)

>  <assayed.target>
Danio rerio embryo

>  <EC10 Eye-jaw distance Decrease, µM>
2.39

$$$$
>  <molecule>
CCCCOC(=O)[C@@H](C)Oc1ccc(Oc2ccc(C(F)(F)F)cn2)cc1

>  <assayed.target>
Danio rerio embryo

>  <EC10 Eye-jaw distance Decrease, µM>
0.645

$$$$
>  <molecule>
CC1=C(/C=C/C(C)=C/C=C/C(C)=C/C(=O)O)C(C)(C)CCC1 [all-trans retinoic acid]

>  <assayed.target>
Danio rerio embryo

>  <EC10 Eye-jaw distance Decrease, µM>
0.025

$$$$

---

# Test system: Danio rerio embryo
# assay.info: EC20 Eye-jaw distance_Decrease; higher = less potent
# condition.description: exposure time: 4 dpf

>  <compound>
CC(=O)Nc1ccc(O)cc1

>  <assayed.target>
Danio rerio embryo

>  <unit>
µM

>  <EC20 Eye-jaw distance Decrease>
2410

$$$$
>  <compound>
CC(=O)OCC(=O)[C@@]1(OC(C)=O)[C@@H](C)C[C@H]2[C@@H]3C[C@H](F)C4=CC(=O)C=C[C@]4(C)[C@@]3(F)[C@@H](O)C[C@@]21C [diflorasone diacetate]

>  <assayed.target>
Danio rerio embryo

>  <unit>
µM

>  <EC20 Eye-jaw distance Decrease>
0.041

$$$$
>  <compound>
CSc1nc2cc(Cl)c(Oc3cccc(Cl)c3Cl)cc2[nH]1

>  <assayed.target>
Danio rerio embryo

>  <unit>
µM

>  <EC20 Eye-jaw distance Decrease>
0.708

$$$$
>  <compound>
CCCNCC(O)COc1ccccc1C(=O)CCc1ccccc1 (stereo unspecified)

>  <assayed.target>
Danio rerio embryo

>  <unit>
µM

>  <EC20 Eye-jaw distance Decrease>
18.8

$$$$
>  <compound>
CCCCOC(=O)[C@@H](C)Oc1ccc(Oc2ccc(C(F)(F)F)cn2)cc1

>  <assayed.target>
Danio rerio embryo

>  <unit>
µM

>  <EC20 Eye-jaw distance Decrease>
1.04

$$$$
>  <compound>
CCO/N=C(\CC)C1=C(O)CC(c2c(C)cc(C)cc2C)CC1=O (stereo unspecified)

>  <assayed.target>
Danio rerio embryo

>  <unit>
µM

>  <EC20 Eye-jaw distance Decrease>
89

$$$$

---

# System: Danio rerio embryo
# condition.description: exposure time: 4 dpf

>  <molecule>
CCCCC(O)(Cn1cncn1)c1ccc(Cl)cc1Cl (stereo not drawn)

>  <EC50 LMR dark>
4830 nM

$$$$
>  <molecule>
CSc1nc2cc(Cl)c(Oc3cccc(Cl)c3Cl)cc2[nH]1

>  <EC50 LMR dark>
403 nM

$$$$
>  <molecule>
CC1=C(/C=C/C(C)=C/C=C/C(C)=C/C(=O)O)C(C)(C)CCC1 [all-trans retinoic acid]

>  <EC50 LMR dark>
36 nM

$$$$

---

# System: Danio rerio embryo
# assay.info: EC20 Any effect; higher = less potent
# condition.description: exposure time: 2 dpf
Measured EC20 Any effect, listed per entry.
readout: EC20 Any effect (µM)

>  <compound>
CCOC(=O)N1CCC(=C2c3ccc(Cl)cc3CCc3cccnc32)CC1

>  <unit>
µM

>  <numeric.value>
5.01

$$$$
>  <compound>
CC(=O)Nc1ccc(O)cc1

>  <unit>
µM

>  <numeric.value>
2050

$$$$
>  <compound>
CCO/N=C(\CC)C1=C(O)CC(c2c(C)cc(C)cc2C)CC1=O (stereo unspecified)

>  <unit>
µM

>  <numeric.value>
47.2

$$$$
>  <compound>
C[Si](Cn1cncn1)(c1ccc(F)cc1)c1ccc(F)cc1

>  <unit>
µM

>  <numeric.value>
6.04

$$$$
>  <compound>
COC(=O)Nc1nc2cc(Sc3ccccc3)ccc2[nH]1

>  <unit>
µM

>  <numeric.value>
0.019

$$$$
>  <compound>
CC(C)(C)C(O)C(Oc1ccc(Cl)cc1)n1cncn1 (stereo unspecified)

>  <unit>
µM

>  <numeric.value>
127

$$$$
